The origin of these recorded values is patent US5935973A.

Readings of % displacement of radio ligand, α1 for the listed compounds
System: α1-adrenoceptors
Assay: inhibition of [7-methoxy-3H]prazosin binding to α1-adrenoceptors in rat whole cortical tissue
Details: at 10^-6 M; rat whole cortex, [7-methoxy-3H]prazosin; 30 min, 1 µM
Description: Whole cortical tissue from the brains of male Charles River CD rats weighing between 150-250 g were homogenised in ice-cold 50 mM Tris-HCl, pH 7.6 (at 25° C.; 1:40 w/v) and centrifuged at 1000 g at 4° C. for 10 minutes. The supernatant was centrifuged at 30,000 g at 4° C. for 10 minutes. […] The filters were washed with ice-cold Tris-HCl buffer and dried. The filters were punched out into vials, scintillation fluid added and radioactivity determined by liquid scintillation counting. […]
Your answer is read as %, so omit the unit and give the number.

Here is how some compounds turned out for % displacement of radio ligand, α1.
O=C(NCC1CCN(C[C@H]2COc3cccc(C(F)(F)F)c3O2)CC1)c1cncc(Br)c1 ... 93
Cc1ncccc1C(=O)NCC1CCN(C[C@H]2COc3cccc(C(F)(F)F)c3O2)CC1 ... 98

Next item in the queue.
q: Supply % displacement of radio ligand, α1 value. Item: Nc1ncccc1C(=O)NCC1CCN(C[C@H]2COc3ccc(F)c(F)c3O2)CC1
a: 68

* * *

Readings of % displacement of radio ligand, α1 for the listed compounds
test system: α1-adrenoceptors; experiment: inhibition of [7-methoxy-3H]prazosin binding to α1-adrenoceptors in rat whole cortical tissue; conditions: at 10^-6 M; rat whole cortex, [7-methoxy-3H]prazosin; 30 min, 1 µM
Your answer is read as %, so omit the unit and give the number.

Here is how some compounds turned out for % displacement of radio ligand, α1.
CSc1ncccc1C(=O)NCC1CCN(C[C@H]2COc3cccc(Cl)c3O2)CC1 [Example 51] ... 98
Cc1ccc2c(c1)O[C@@H](CN1CCC(CNC(=O)c3cccnc3)CC1)CO2 [Example 30] ... 61
O=C(NCC1CCN(C[C@H]2COc3ccc(F)cc3O2)CC1)c1cccnc1 [Example 43] ... 59

q: Supply % displacement of radio ligand, α1 value. Item: O=C(NCC1CCN(C[C@H]2COc3ccc(Br)cc3O2)CC1)c1cccnc1 [Example 35]
a: 73

q: Supply % displacement of radio ligand, α1 value. Item: Cc1ncccc1C(=O)NCC1CCN(C[C@H]2COc3ccc(Br)cc3O2)CC1 [Example 36]
a: 54

q: Supply % displacement of radio ligand, α1 value. Item: Cc1ccc2c(c1)O[C@@H](CN1CCC(CNC(=O)c3ccc(-n4cccc4)nc3)CC1)CO2 [Example 32]
a: 71

q: Supply % displacement of radio ligand, α1 value. Item: O=C(NCC1CCN(C[C@H]2COc3cccc(Cl)c3O2)CC1)c1cncc(Br)c1 [Example 52]
a: 97

q: Supply % displacement of radio ligand, α1 value. Item: O=C(NCC1CCN(C[C@H]2COc3cccc(C(F)(F)F)c3O2)CC1)c1ccc(-n2cccc2)nc1 [Example 47]
a: 94

* * *

Readings of Ki for the listed compounds
biological target: D2 dopamine receptors (Rattus norvegicus); construct: Striatal tissue from the brains of male Charles River CD rats; assay: inhibition of tritiated (S)-sulpiride binding to D2 dopamine receptors in rat striatal tissue; conditions: rat striatum, tritiated (S)-sulpiride 1 nM, 4° C., 40 min
Sequence (P61169 whole entry): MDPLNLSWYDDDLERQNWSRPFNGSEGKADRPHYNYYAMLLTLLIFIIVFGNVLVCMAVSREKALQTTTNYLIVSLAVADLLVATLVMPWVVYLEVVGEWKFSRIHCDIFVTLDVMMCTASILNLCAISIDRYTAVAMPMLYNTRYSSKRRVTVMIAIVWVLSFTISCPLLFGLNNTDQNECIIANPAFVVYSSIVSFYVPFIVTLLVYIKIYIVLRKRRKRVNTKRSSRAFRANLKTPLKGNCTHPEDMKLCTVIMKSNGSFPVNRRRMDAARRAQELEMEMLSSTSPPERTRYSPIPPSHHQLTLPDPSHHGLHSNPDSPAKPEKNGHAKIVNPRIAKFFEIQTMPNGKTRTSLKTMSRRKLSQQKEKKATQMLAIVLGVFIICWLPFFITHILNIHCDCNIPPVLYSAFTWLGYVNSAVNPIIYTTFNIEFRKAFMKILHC
Your answer is read as µM, so omit the unit and give the number.

Here is how some compounds turned out for Ki.
Nc1ncccc1C(=O)NCC1CCN(C[C@H]2COc3ccc(Cl)cc3O2)CC1 [Example 1] ... 0.0322
O=C(NCC1CCN(CC2COc3ccccc3O2)CC1)c1cccc2cccnc12 (stereo not drawn) [Example 8] ... 0.095

q: Supply Ki value. Item: Nc1ccsc1C(=O)NCC1CCN(C[C@H]2COc3ccc(Cl)cc3O2)CC1 [Example 17]
a: 0.036

q: Supply Ki value. Item: Nc1ncccc1C(=O)NCC1CCN(C[C@H]2COc3cccc(F)c3O2)CC1 [Example 3]
a: 0.0329

q: Supply Ki value. Item: COc1ccc2c(c1)O[C@@H](CN1CCC(CNC(=O)c3cccnc3N)CC1)CO2 [Example 7]
a: 0.197

q: Supply Ki value. Item: Cc1cccc(C(=O)NCC2CCN(C[C@H]3COc4ccc(Cl)cc4O3)CC2)n1 [Example 25]
a: 0.033
